Recorded furin cleavage Z-score by entry
Target: furin, P09958;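 further: purified furin at 1:10 enzyme:substrate in 50 mM HEPES pH 7.5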
Sequence (P09958 whole entry): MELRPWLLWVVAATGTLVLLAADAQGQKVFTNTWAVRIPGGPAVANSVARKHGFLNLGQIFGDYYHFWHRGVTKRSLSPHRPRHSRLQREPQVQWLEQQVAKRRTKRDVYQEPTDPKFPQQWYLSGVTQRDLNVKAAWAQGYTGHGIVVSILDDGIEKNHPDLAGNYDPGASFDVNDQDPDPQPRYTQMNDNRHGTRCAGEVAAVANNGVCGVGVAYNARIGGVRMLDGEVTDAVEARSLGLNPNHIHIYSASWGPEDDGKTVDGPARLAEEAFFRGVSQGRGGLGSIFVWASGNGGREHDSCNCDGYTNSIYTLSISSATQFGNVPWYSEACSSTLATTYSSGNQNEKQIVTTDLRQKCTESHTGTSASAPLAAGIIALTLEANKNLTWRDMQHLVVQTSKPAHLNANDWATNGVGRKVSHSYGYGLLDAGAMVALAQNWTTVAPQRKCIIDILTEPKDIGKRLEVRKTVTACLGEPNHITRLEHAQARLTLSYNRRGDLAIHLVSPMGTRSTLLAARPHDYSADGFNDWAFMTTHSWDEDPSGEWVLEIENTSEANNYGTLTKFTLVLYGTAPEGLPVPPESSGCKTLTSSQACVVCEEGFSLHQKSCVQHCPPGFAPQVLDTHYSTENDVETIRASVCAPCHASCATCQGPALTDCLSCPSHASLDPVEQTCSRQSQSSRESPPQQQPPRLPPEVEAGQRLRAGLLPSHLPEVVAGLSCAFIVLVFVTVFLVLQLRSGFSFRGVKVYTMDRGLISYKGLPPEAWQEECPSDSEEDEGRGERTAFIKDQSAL
Test: furin cleavage Z-score vs untreated control; higher = more cleavage, active = 3.5 or more, inactive = 1 or less, 8 variable residues between constant flanks
Details: 7.5 min
This is one part of the list. The hit rate among all sequences tested is not known here.

CAVRARFVRFAGNASASA [FS-1433] | 9.46 (active)
CAVYVRVSRFAGNASASA [FS-518] | 3.44
CAREARAVIFAGNASASA [FS-3186] | -0.327 (inactive)

Shift focus to the following entry.
Task: Name the recorded furin cleavage Z-score of the item CASRLRFDRFAGNASASA [FS-505] in your answer.
Output: -0.495 (inactive)
